# System: Staphylococcus aureus
# ASSAY_INFO: In vitro inhibition of growth of methicillin-resistant Staphylococcus aureus MRSA ATCC 335893 (clinical isolates)
# Format: functional
Would you mind telling me the reported MIC of each entry?
One number for each entry, in µg/mL.

Solved entries:
CPD_SMILES | TESTED_ON | QUANTITATIVE_RESULT
NCCSc1nccnc1SC1=C(C(=O)O)N2C(=O)[C@@H](NC(=O)/C(=N\O)c3cccc(N)n3)[C@H]2SC1 | Staphylococcus aureus | 2
NCCSCc1ncsc1SC1=C(C(=O)O)N2C(=O)[C@@H](NC(=O)/C(=N\O)c3cccc(N)n3)[C@H]2SC1 | Staphylococcus aureus | 1
COc1nc(CSCCN)c(SC2=C(C(=O)O)N3C(=O)[C@@H](NC(=O)/C(=N\O)c4cccc(N)n4)[C@H]3SC2)s1 | Staphylococcus aureus | 4

Please go through the list and note MIC for each compound.
1. NCCSCc1nsc(SC2=C(C(=O)O)N3C(=O)[C@@H](NC(=O)/C(=N\O)c4cccc(N)n4)[C@H]3SC2)n1
2. NCCSCc1nc(Cl)sc1SC1=C(C(=O)O)N2C(=O)[C@@H](NC(=O)/C(=N\O)c3cccc(N)n3)[C@H]2SC1
3. NCCSCc1nnsc1SC1=C(C(=O)O)N2C(=O)[C@@H](NC(=O)/C(=N\O)c3csc(N)n3)[C@H]2SC1
4. NCCSCc1cnccc1SC1=C(C(=O)O)N2C(=O)[C@@H](NC(=O)/C(=N\O)c3cccc(N)n3)[C@H]2SC1
5. NCCSCc1cnccc1SC1=C(C(=O)O)N2C(=O)[C@@H](NC(=O)/C(=N\O)c3nc(N)sc3Cl)[C@H]2SC1
6. NCCSc1cncc(SC2=C(C(=O)O)N3C(=O)[C@@H](NC(=O)/C(=N\O)c4cccc(N)n4)[C@H]3SC2)n1
7. Cc1nc(CSCCN)c(SC2=C(C(=O)O)N3C(=O)[C@@H](NC(=O)/C(=N\O)c4cccc(N)n4)[C@H]3SC2)s1
8. NCCSCc1nnsc1SC1=C(C(=O)O)N2C(=O)[C@@H](NC(=O)/C(=N\O)c3cccc(N)n3)[C@H]2SC1

2
1
1
2
1
8
2
1

State its MIC for this compound: NCCSCc1nc(N)sc1SC1=C(C(=O)O)N2C(=O)[C@@H](NC(=O)/C(=N\O)c3cccc(N)n3)[C@H]2SC1 2

---

# Test system: Staphylococcus aureus
# ASSAY_INFO: In vitro inhibition of growth of methicillin-resistant Staphylococcus aureus MRSA 76 (clinical isolates)
# Type: functional
QUANTITY: MIC (µg/mL)
Answers are plain numbers, in µg/mL.

MOLECULE | UNIT | MIC
C[C@@H](O)[C@H]1C(=O)N2C(C(=O)O)=C(SCCNC=N)C[C@H]12 [IMIPENEM ANHYDROUS] | µg/mL | 32
NCCSc1cncc(SC2=C(C(=O)O)N3C(=O)[C@@H](NC(=O)/C(=N\O)c4cccc(N)n4)[C@H]3SC2)n1 | µg/mL | 16
COc1nc(CSCCN)c(SC2=C(C(=O)O)N3C(=O)[C@@H](NC(=O)/C(=N\O)c4cccc(N)n4)[C@H]3SC2)s1 | µg/mL | 4
NCCSc1nsc(SC2=C(C(=O)O)N3C(=O)[C@@H](NC(=O)/C(=N\O)c4cccc(N)n4)[C@H]3SC2)n1 | µg/mL | 2

Shift focus to the following entry.
Report measured MIC; entry is NCCSCc1cnccc1SC1=C(C(=O)O)N2C(=O)[C@@H](NC(=O)/C(=N\O)c3cccc(N)n3)[C@H]2SC1 1

---

# Test system: Staphylococcus aureus
# ASSAY_INFO: In vitro inhibition of growth of methicillin-resistant Staphylococcus aureus MRSA ATCC 335893 (clinical isolates)
# Type: functional
Provide the recorded MIC for the entries that follow.
Answers are plain numbers, in µg/mL.

Please review the following examples before continuing.
COMPOUND | UNIT | MIC
C[C@@H](O)[C@H]1C(=O)N2C(C(=O)O)=C(SCCNC=N)C[C@H]12 [IMIPENEM ANHYDROUS] | µg/mL | 32
NCCSCc1nc(SCCN)sc1SC1=C(C(=O)O)N2C(=O)[C@@H](NC(=O)/C(=N\O)c3cccc(N)n3)[C@H]2SC1 | µg/mL | 1
NCCSc1nccc(SC2=C(C(=O)O)N3C(=O)[C@@H](NC(=O)/C(=N\O)c4cccc(N)n4)[C@H]3SC2)n1 | µg/mL | 8
NCCSCc1csc(SC2=C(C(=O)O)N3C(=O)[C@@H](NC(=O)/C(=N\O)c4cccc(N)n4)[C@H]3SC2)n1 | µg/mL | 1
NCCCSc1nsc(SC2=C(C(=O)O)N3C(=O)[C@@H](NC(=O)/C(=N\O)c4cccc(N)n4)[C@H]3SC2)n1 | µg/mL | 2

Give MIC for all compounds that follow.
1. NCCSc1nsc(SC2=C(C(=O)O)N3C(=O)[C@@H](NC(=O)/C(=N\O)c4cccc(N)n4)[C@H]3SC2)n1
2. NCCSCc1ccccc1SC1=C(C(=O)O)N2C(=O)[C@@H](NC(=O)/C(=N\O)c3cccc(N)n3)[C@H]2SC1

1: 2; 2: 1

---

# System: Staphylococcus aureus
# ASSAY_INFO: In vitro inhibition of growth of methicillin-resistant Staphylococcus aureus MRSA spain 356 (clinical isolates)
# Type: functional
With a cut-off of 2 µg/mL, any MIC strictly below it is called Met; any MIC meeting it or above is called Not met.

COMPOUND | TESTED_ON | CLASS
NCCSCc1nnsc1SC1=C(C(=O)O)N2C(=O)[C@@H](NC(=O)/C(=N\O)c3csc(N)n3)[C@H]2SC1 | Staphylococcus aureus | Met
COc1nc(CSCCN)c(SC2=C(C(=O)O)N3C(=O)[C@@H](NC(=O)/C(=N\O)c4cccc(N)n4)[C@H]3SC2)s1 | Staphylococcus aureus | Not met
NCCSCc1nc(SCCN)sc1SC1=C(C(=O)O)N2C(=O)[C@@H](NC(=O)/C(=N\O)c3cccc(N)n3)[C@H]2SC1 | Staphylococcus aureus | Met
NCCSCc1ccccc1SC1=C(C(=O)O)N2C(=O)[C@@H](NC(=O)/C(=N\O)c3cccc(N)n3)[C@H]2SC1 | Staphylococcus aureus | Met

Quick check: does NCCSc1nccc(SC2=C(C(=O)O)N3C(=O)[C@@H](NC(=O)/C(=N\O)c4cccc(N)n4)[C@H]3SC2)n1 have MIC under 2 µg/mL? Not met

Hello, is MIC of the following compound strictly smaller than 2 µg/mL? NCCSCc1nc(Cl)sc1SC1=C(C(=O)O)N2C(=O)[C@@H](NC(=O)/C(=N\O)c3cccc(N)n3)[C@H]2SC1 Met

Lab log: compare recorded MIC with 2 µg/mL; is it strictly lower for NCCSCc1nnsc1SC1=C(C(=O)O)N2C(=O)[C@@H](NC(=O)/C(=N\O)c3cccc(N)n3)[C@H]2SC1 ? Met

Is it true that MIC reported for NCCSCc1nsc(SC2=C(C(=O)O)N3C(=O)[C@@H](NC(=O)/C(=N\O)c4cccc(N)n4)[C@H]3SC2)n1 is less than 2 µg/mL? Not met

Is 2 µg/mL strictly greater than the compound's reported MIC? compound: C[C@@H](O)[C@H]1C(=O)N2C(C(=O)O)=C(SCCNC=N)C[C@H]12 [IMIPENEM ANHYDROUS] Not met

Take the compound NCCSCc1cnccc1SC1=C(C(=O)O)N2C(=O)[C@@H](NC(=O)/C(=N\O)c3nc(N)sc3Cl)[C@H]2SC1 and say whether its MIC is less than 2 µg/mL. Met

is_below(MIC, 2 µg/mL) for NCCSc1cncc(SC2=C(C(=O)O)N3C(=O)[C@@H](NC(=O)/C(=N\O)c4cccc(N)n4)[C@H]3SC2)n1 ? Not met

Is the reported MIC for NCCSCc1nc(N)sc1SC1=C(C(=O)O)N2C(=O)[C@@H](NC(=O)/C(=N\O)c3cccc(N)n3)[C@H]2SC1 strictly below 2 µg/mL? Not met

---

# System: Staphylococcus aureus
# ASSAY_INFO: In vitro inhibition of growth of methicillin-resistant Staphylococcus aureus MRSA 76 (clinical isolates)
# Type: functional
QUANTITY: MIC (µg/mL)
One number for each entry, in µg/mL.

CPD_SMILES | MIC [µg/mL]
NCCSCc1cnccc1SC1=C(C(=O)O)N2C(=O)[C@@H](NC(=O)/C(=N\O)c3nc(N)sc3Cl)[C@H]2SC1 | 1
NCCSCc1nsc(SC2=C(C(=O)O)N3C(=O)[C@@H](NC(=O)/C(=N\O)c4cccc(N)n4)[C@H]3SC2)n1 | 4
NCCSCc1nnsc1SC1=C(C(=O)O)N2C(=O)[C@@H](NC(=O)/C(=N\O)c3cccc(N)n3)[C@H]2SC1 | 1
NCCSCc1nc(SCCN)sc1SC1=C(C(=O)O)N2C(=O)[C@@H](NC(=O)/C(=N\O)c3cccc(N)n3)[C@H]2SC1 | 1
NCCSCc1nnsc1SC1=C(C(=O)O)N2C(=O)[C@@H](NC(=O)/C(=N\O)c3csc(N)n3)[C@H]2SC1 | 1

For each listed entry, give its MIC.
1. NCCSc1nccc(SC2=C(C(=O)O)N3C(=O)[C@@H](NC(=O)/C(=N\O)c4cccc(N)n4)[C@H]3SC2)n1
2. NCCSCc1ccccc1SC1=C(C(=O)O)N2C(=O)[C@@H](NC(=O)/C(=N\O)c3cccc(N)n3)[C@H]2SC1

[16, 1]
